# System: HCV 1b genotype
# measurementDescription: HCV replicon assay (HCV-neo replicon cells, wild-type)
# Type: cell-based, Hepatitis C virus
# cond: Hepatitis C virus, HCV 1b genotype replicon; class symbol; read-out: EC50 Range against HCV 1b
pEC50: −log10 of the molar value.
measuredAttribute: pEC50

CO[C@H]1C[C@@H](C(=O)Nc2ccc(-c3cnc(-c4ccc(NC(=O)[C@@H]5C[C@H](OC)CN5C(=O)[C@@H](c5ccccc5)N(C)C)cc4)o3)cc2)N(C(=O)[C@@H](c2ccccc2)N(C)C)C1    > 8.34
CC(C)(C)OC[C@H](NC(=O)Cc1ccccc1)C(=O)Nc1ccc(-c2cnc(-c3ccc(NC(=O)[C@H](COC(C)(C)C)NC(=O)Cc4ccccc4)cc3)o2)cc1    6.00 to 7.00

Would you kindly look at the next entry?
## Input Find the recorded pEC50 belonging to `O=C(Nc1ccc(-c2nnc(-c3ccc(NC(=O)[C@@H]4CCCN4C(=O)[C@@H]4CCCO4)cc3)o2)cc1)[C@@H]1CCCN1C(=O)[C@@H]1CCCO1` and report it.
## Output 6.00 to 7.00

* * *

# System: HCV 1b genotype
# measurementDescription: HCV replicon assay (HCV-neo replicon cells, wild-type)
# Type: cell-based, Hepatitis C virus
# cond: Hepatitis C virus, HCV 1b genotype replicon; class symbol; read-out: EC50 Range against HCV 1b
pEC50: −log10 of the molar value.
measuredAttribute: pEC50

O=C(Nc1ccc(-c2nnc(-c3ccc(NC(=O)[C@@H]4CCCN4C(=O)CC4CC4)cc3)o2)cc1)[C@@H]1CCCN1C(=O)CC1CC1    5.00 to 6.00
CC(=O)N1CCC[C@H]1C(=O)Nc1ccc(-c2nc(-c3ccc(NC(=O)C4CC(=O)N(CCc5cccs5)C4)cc3)cs2)cc1 (stereo partly shown)    5.00 to 6.00
O=C(Nc1ccc(-c2cc(-c3ccc(NC(=O)[C@@H]4CCCN4C(=O)[C@@H](O)c4ccccc4)cc3)[nH]n2)cc1)[C@@H]1CCCN1C(=O)[C@@H](O)c1ccccc1    7.00 to 8.34
O=C(Nc1ccc(-c2cc(-c3ccc(NC(=O)[C@@H]4CCCN4C(=O)c4nc5ccccc5s4)cc3)[nH]n2)cc1)[C@@H]1CCCN1C(=O)c1nc2ccccc2s1    6.00 to 7.00
CCc1ccccc1C(=O)N1CCC[C@H]1C(=O)Nc1ccc(-c2nnc(-c3ccc(NC(=O)[C@@H]4CCCN4C(=O)c4ccccc4CC)cc3)o2)cc1    6.00 to 7.00

## Input Form field - read-out: pEC50; system: HCV 1b genotype; submitted item: CC(=O)N1CCC[C@H]1C(=O)Nc1ccc(-c2cnc(-c3ccc(NC(=O)C4CC(=O)N(CCc5cccs5)C4)cc3)o2)cc1 (stereo partly shown)
## Output 6.00 to 7.00

## Input Form field - read-out: pEC50; system: HCV 1b genotype; submitted item: O=C(Nc1ccc(-c2nnc(-c3ccc(NC(=O)[C@@H]4CCCN4C(=O)[C@@H]4CCCO4)cc3)o2)cc1)[C@@H]1CCCN1C(=O)C1CCCO1 (stereo partly shown)
## Output 6.00 to 7.00

## Input Form field - read-out: pEC50; system: HCV 1b genotype; submitted item: `O=C(Nc1ccc(-c2cnc(-c3ccc(NC(=O)[C@@H]4CCCN4C(=O)c4onc5ccccc45)cc3)o2)cc1)[C@@H]1CCCN1C(=O)c1onc2ccccc12`
## Output 7.00 to 8.34

## Input Form field - read-out: pEC50; system: HCV 1b genotype; submitted item: `CO[C@H](C(=O)N1CCC[C@H]1C(=O)Nc1ccc(-c2cc(-c3ccc(NC(=O)[C@@H]4CCCN4C(=O)[C@@H](OC)c4ccccc4)cc3)[nH]n2)cc1)c1ccccc1`
## Output > 8.34

## Input Form field - read-out: pEC50; system: HCV 1b genotype; submitted item: `CN(C)[C@@H](C(=O)N1CC[C@@H](NC(=O)Nc2ccc(-c3cnc(-c4ccc(NC(=O)N[C@@H]5CCN(C(=O)[C@@H](c6ccccc6)N(C)C)C5)cc4)o3)cc2)C1)c1ccccc1`
## Output 6.00 to 7.00

## Input Form field - read-out: pEC50; system: HCV 1b genotype; submitted item: `O=C(Nc1ccc(-c2cnc(-c3ccc(NC(=O)[C@@H]4CCCN4C(=O)[C@H](O)c4ccccc4Cl)cc3)o2)cc1)[C@@H]1CCCN1C(=O)[C@H](O)c1ccccc1Cl`
## Output > 8.34
